Molecular target: Cytochrome P450 3A4 (Homo sapiens)
Test: Cytochrome panel assay with activity outcomes
Settings: recombinant CYP, pro-luciferin dealkylation, luminescence, p450-cyp3a4; series mostly up to 57.1 µM
About 5,100 (32%) of roughly 16,000 compounds were called active. Inconclusive results (about 25%) are left out. Calls follow the shape of the dose curve; as a rule, active = well fitted curve in the direction sought with a large enough effect; inconclusive = small, poorly fitted or top-dose-only effect, or effect the other way; inactive = no such curve, though single readings can be large or run the other way. Some of the results follow.
Outcomes: active, inactive

compound=Cc1ccc(S(=O)(=O)N[C@@H](CCc2ccccc2)CC(=O)C(C)(C)C)cc1 assigned_class=active
compound=Cc1cc(C)c(S(=O)(=O)N2CCN(c3ccc([N+](=O)[O-])c(NCc4ccco4)c3)CC2)c(C)c1 assigned_class=active
compound=Nc1c(S(=O)(=O)c2ccccc2)c2nc3ccccc3nc2n1Cc1ccco1 assigned_class=active
compound="CC(C)OC(=O)C(C#N)c1nc2ccccc2nc1N1CCN(Cc2ccccc2)CC1 (stereo not drawn)" assigned_class=inactive
compound=COc1ccccc1/C=C/C=N/N1CCN(Cc2ccc(Cl)cc2)CC1 assigned_class=active
compound=CCOc1ccc(N(CCC#N)S(=O)(=O)c2ccc(OC)cc2)cc1 assigned_class=active
compound=CC(=O)N(C)c1nnc(-c2cnccn2)s1 assigned_class=inactive
compound=O=C(Nc1ccccc1)N1CCSc2cc(Cl)ccc21 assigned_class=inactive
compound="O=C1c2ccccc2C(=O)N1CC1c2ccccc2CCN1S(=O)(=O)c1ccccc1 (stereo not drawn)" assigned_class=active
compound=COC(=O)N1CCC2(CC1)CN(C(=O)Nc1ccccc1)C2 assigned_class=inactive
compound=O=C(Nc1ccc(Cl)cc1)N1CCc2[nH]c3ccccc3c2C1 assigned_class=active
compound=Cc1cc(C)c(C#N)c(SCc2cc3c(cc2Cl)OCO3)n1 assigned_class=active
compound=C[N+]1(C)CCC(OC(=O)C(c2ccccc2)c2ccccc2)CC1 assigned_class=inactive

Source: PubChem BioAssay AID1851
